- assay.text: plasma pharmacokinetics of single oral AZD5438 dosing in mice
- Assay type: in vivo
- assay.context: CBA, mouse, 37.5 mg/kg
observable: concentration at 2 h
Please format your answer as a value with the unit trailing.

Reported concentration at 2 h of Cc1ncc(-c2ccnc(Nc3ccc(S(C)(=O)=O)cc3)n2)n1C(C)C : 621 ng/mL

====

- assay.text: plasma pharmacokinetics of single oral AZD5438 dosing in mice
- Assay type: in vivo
- assay.context: CBA, mouse, 37.5 mg/kg
observable: concentration at 3 h (ng/mL)
Report only the number, with the unit ng/mL understood.

Just so you know, measured concentration at 3 h for Cc1ncc(-c2ccnc(Nc3ccc(S(C)(=O)=O)cc3)n2)n1C(C)C came out at 510

These entries and their values trace back to paper PMC12634867.
